Tested on: L6 rat myoblast cell line
METHOD_DESCRIPTION: Cytotoxicity, L6
Format: cell-based
ASSAY_CONTEXT: read-out: L6 IC50
pIC50: −log10 of the molar value.
MEASURE: pIC50

1. NS(=O)(=O)c1cccc(-c2ccc3nccc(-c4ccnc(C(F)(F)F)c4)c3n2)c1 [Compound 1]; 4.46
2. CS(=O)(=O)c1cccc(-c2ccnc3ccc(N4CCC(O)CC4)nc23)c1 [Compound 21]; 5.10
3. CNC(=O)Cc1cccc(-c2ccc3nccc(-c4ccc(C(C)(C)O)nc4)c3n2)c1 [Compound 27]; 4.42

----------
System: P. falciparum K1 (PfK1) strain
METHOD_DESCRIPTION: In vitro antiplasmodial asexual blood stage activity, pLDH assay, K1
Type: cell-based
ASSAY_CONTEXT: Plasmodium falciparum, K1; pLDH assay, 72 h; read-out: Pf ABS IC50 K1
pIC50: −log10 of the molar value.
MEASURE: pIC50

1) CC(C)(O)c1ccc(-c2ccnc3ccc(-c4ccnc(N5C[C@H](O)[C@@H](O)C5)c4)nc23)cn1 [Compound 28]; 7.28
2) CC(C)(O)c1ccc(-c2ccnc3ccc(-c4cccc(C(C)(C)O)c4F)nc23)cn1 [Compound 31]; 6.33
3) CS(=O)(=O)c1cccc(-c2ccc3nccc(-c4ccc(C(=O)N5CCC(O)C5)cc4)c3n2)c1 (centres unmarked) [Compound 37]; 7.02
4) Cn1ccc(-c2ccc3nccc(-c4ccc(C(C)(C)O)nc4)c3n2)cc1=O [Compound 24]; 6.96
5) CC(C)(O)c1cccc(-c2ccc3nccc(-c4ccc(C(C)(C)O)nc4)c3n2)c1 [Compound 30]; 7.47

----------
Listing of recorded logD at 3 h by entry.
METHOD_DESCRIPTION: physchem
ASSAY_CONTEXT: n-octanol/phosphate buffer (1:1), pH 7.4
MEASURE: logD at 3 h

1) Cn1ccc(-c2ccc3nccc(-c4ccc(C(C)(C)O)nc4)c3n2)cc1=O; 1.98
2) Cn1ccc(-c2ccc3nccc(-c4cccc(S(C)(=O)=O)c4)c3n2)cc1=O; 1.46
3) CS(=O)(=O)c1cccc(-c2ccnc3ccc(N4CCC(O)CC4)nc23)c1; 2.27
4) CS(=O)(=O)c1cccc(-c2ccc3nccc(-c4ccc(C(=O)N5CCC(O)C5)cc4)c3n2)c1 (stereo not shown); 1.92

----------
Tested on: P. falciparum NF54 (PfNF54) parasites
METHOD_DESCRIPTION: In vitro antiplasmodial asexual blood stage activity, pLDH assay, NF54
Format: cell-based, Plasmodium falciparum
ASSAY_CONTEXT: Plasmodium falciparum, NF54, 72 h, read-out: Pf ABS IC50 NF54
# key: entry, value: IC50
MEASURE: IC50 (nM)

1. CC(C)(O)c1ccc(-c2ccnc3ccc(-c4cccc(CC(N)=O)c4)nc23)cn1 [Compound 26]; 37
2. CS(=O)(=O)c1cccc(-c2ccc3nccc(-c4ccn(CCO)c(=O)c4)c3n2)c1 [Compound 35]; 200
3. CNC(=O)Cc1cccc(-c2ccc3nccc(-c4ccc(C(C)(C)O)nc4)c3n2)c1 [Compound 27]; 51
4. NC(=O)Cc1cccc(-c2ccc3nccc(-c4ccnc(C(F)(F)F)c4)c3n2)c1 [Compound 15]; 310
5. Cn1ccc(-c2ccc3nccc(-c4ccnc(C(F)(F)F)c4)c3n2)cc1=O [Compound 13]; 77

----------
System: P. falciparum NF54 (PfNF54) parasites
METHOD_DESCRIPTION: In vitro antiplasmodial asexual blood stage activity, pLDH assay, NF54
Format: cell-based, Plasmodium falciparum
ASSAY_CONTEXT: Plasmodium falciparum, NF54, 72 h, read-out: Pf ABS IC50 NF54
pIC50: −log10 of the molar value.
The following compounds are listed with their measured pIC50 values.
MEASURE: pIC50

1) O[C@H]1CN(c2cc(-c3ccc4nccc(-c5ccnc(C(F)(F)F)c5)c4n3)ccn2)C[C@@H]1O [Compound 16]; 7.29
2) CC(C)(O)c1ccc(-c2ccnc3ccc(-c4cccc(CS(C)(=O)=O)c4)nc23)cn1 [Compound 29]; 7.34
3) Cn1ccc(-c2ccc3nccc(-c4ccnc(C(C)(C)O)c4)c3n2)cc1=O [Compound 23]; 6.85
4) Cn1cc(-c2ccc3nccc(-c4cccc(S(C)(=O)=O)c4)c3n2)ccc1=O [Compound 20]; 6.39
5) CC(C)(O)C(=O)N1CC=C(c2ccc3nccc(-c4ccnc(C(F)(F)F)c4)c3n2)CC1 [Compound 17]; 6.85
6) NS(=O)(=O)c1cccc(-c2ccc3nccc(-c4ccnc(C(F)(F)F)c4)c3n2)c1 [Compound 1]; 7.20
7) CS(=O)(=O)c1cccc(-c2ccc3nccc(-c4cccc(C(=O)N5CCC(O)C5)c4)c3n2)c1 (centres unmarked) [Compound 36]; 6.66
8) C[S+]([O-])c1cccc(-c2ccc3nccc(-c4ccnc(C(F)(F)F)c4)c3n2)c1 (centres unmarked) [Compound 11]; 7.38

----------
System: HepG2 cells
METHOD_DESCRIPTION: Cytotoxicity, MTT assay, HepG2
Type: cell-based
ASSAY_CONTEXT: Homo sapiens, HepG2, read-out: HepG2 IC50
pIC50: −log10 of the molar value.
MEASURE: pIC50

1) NS(=O)(=O)c1cccc(-c2ccc3nccc(-c4ccnc(C(F)(F)F)c4)c3n2)c1; 4.32
2) CNC(=O)Cc1cccc(-c2ccc3nccc(-c4ccc(C(C)(C)O)nc4)c3n2)c1; 5.22

----------
# Lookup of reported solubility thermodynamic at 20 h keyed by entry
METHOD_DESCRIPTION: physchem
ASSAY_CONTEXT: aqueous solution, 25 °C, pH 6.5, aqueous buffer, thermodynamic from solid
MEASURE: solubility thermodynamic at 20 h (µM)

1) Cn1cc(-c2ccnc3ccc(-c4cccc(S(C)(=O)=O)c4)nc23)ccc1=O; 55
2) CC(C)(O)c1cccc(-c2ccc3nccc(-c4ccc(C(C)(C)O)nc4)c3n2)c1; 55
3) CS(=O)(=O)c1cccc(-c2ccc3nccc(-c4ccn(CCO)c(=O)c4)c3n2)c1; 195
4) CS(=O)(=O)c1cccc(-c2ccc3nccc(-c4ccc(C(=O)N5CC[C@H](N)C5)cc4)c3n2)c1; 180
5) Cn1ccc(-c2ccnc3ccc(-c4cccc(S(C)(=O)=O)c4)nc23)cc1=O; 175
6) CS(=O)(=O)c1cccc(-c2ccc3nccc(-c4ccc(C(=O)N5CCC(O)C5)cc4)c3n2)c1 (stereo not shown); 60
7) CS(=O)(=O)c1cccc(-c2ccnc3ccc(N4CCC(O)CC4)nc23)c1; 150
8) CS(=O)(=O)c1cccc(-c2ccc3nccc(-c4cccc(C(=O)N5CCC(O)C5)c4)c3n2)c1 (stereo not shown); 50
9) Cn1ccc(-c2ccc3nccc(-c4ccc(C(C)(C)O)cc4)c3n2)cc1=O; 190
10) CC(C)(O)c1ccc(-c2ccnc3ccc(-c4ccnc(N5C[C@H](O)[C@@H](O)C5)c4)nc23)cn1; 20
11) CC(C)(O)c1ccc(-c2ccnc3ccc(-c4cccc(C(C)(C)O)c4F)nc23)cn1; 10
12) Cn1ccc(-c2ccc3nccc(-c4ccc(C(C)(C)O)nc4)c3n2)cc1=O; 175

----------
Quick list: CLint scaled at 1 µM per entry.
METHOD_DESCRIPTION: in vitro
ASSAY_CONTEXT: mouse, mouse liver microsomes, pH 7.4
MEASURE: CLint scaled at 1 µM

1) CS(=O)(=O)c1cccc(-c2ccc3nccc(-c4ccc(C(=O)N5CCC(O)C5)cc4)c3n2)c1 (stereo not shown); < 93.2 mL/min/kg
2) Cn1ccc(-c2ccc3nccc(-c4cccc(S(C)(=O)=O)c4)c3n2)cc1=O; < 67.2 mL/min/kg
3) Cn1ccc(-c2ccc3nccc(-c4ccc(C(C)(C)O)nc4)c3n2)cc1=O; < 59.4 mL/min/kg
4) CS(=O)(=O)c1cccc(-c2ccnc3ccc(N4CCC(O)CC4)nc23)c1; < 60.1 mL/min/kg

----------
System: HepG2 cells
METHOD_DESCRIPTION: Cytotoxicity, MTT assay, HepG2
Format: cell-based
ASSAY_CONTEXT: Homo sapiens, HepG2; read-out: HepG2 IC50
pIC50: −log10 of the molar value.
MEASURE: pIC50

1) CS(=O)(=O)c1cccc(-c2ccnc3ccc(N4CCC(O)CC4)nc23)c1 [Compound 21]; < 4.30

----------
This listing pairs compounds with measured CLint scaled at 1 µM.
METHOD_DESCRIPTION: in vitro
ASSAY_CONTEXT: human, pooled human liver microsomes, pH 7.4
MEASURE: CLint scaled at 1 µM

1. Cn1ccc(-c2ccc3nccc(-c4ccc(C(C)(C)O)nc4)c3n2)cc1=O; < 17.4 mL/min/kg
2. CS(=O)(=O)c1cccc(-c2ccnc3ccc(N4CCC(O)CC4)nc23)c1; < 17.6 mL/min/kg
3. CS(=O)(=O)c1cccc(-c2ccc3nccc(-c4ccc(C(=O)N5CCC(O)C5)cc4)c3n2)c1 (stereo not shown); < 27.3 mL/min/kg
4. Cn1ccc(-c2ccc3nccc(-c4cccc(S(C)(=O)=O)c4)c3n2)cc1=O; < 19.7 mL/min/kg
